The measured values listed here are drawn from the RNAGym collection of RNA variant scans (doi:10.1073/pnas.2313332121).

Recorded measurements of polymerase ribozyme fitness (log ratio), one per entry
B1: TPR t1 (parent)
chain: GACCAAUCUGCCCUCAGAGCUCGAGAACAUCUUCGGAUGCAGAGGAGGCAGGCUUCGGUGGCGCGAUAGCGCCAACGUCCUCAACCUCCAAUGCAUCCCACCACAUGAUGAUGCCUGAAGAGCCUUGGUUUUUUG

variants of: B1; assay: polymerase ribozyme fitness, log enrichment relative to wild type (log ratio); higher = more active; in vitro selection for triplet polymerase activity

variantCode | polymerase ribozyme fitness (log ratio)
U78G A84U C115U A121C | -3.92
G63A U78G U112A | -2.03
G39A C49A C98A U112C | -3.94
